Biological target: Phenylethanolamine N-methyltransferase (Homo sapiens)
Assay: Confirmatory Screen for Target Class Profiling of Small Molecule Inhibitors of Methyltransferases (AID 1745852)
Conditions: MTase-Glo luminescence, SAH detection, recombinant enzyme; measured here: PNMT max response; stronger effect = lower value
Binarize activity at -10%; below is Criterion met, at or above is Criterion not met.

Strictly below -10%: is that where activity of NCC(CNc1nc(Nc2cccc(NC(=O)N3CCCC3)c2)ncc1I)C(=O)c1cccs1 (stereo not given) sits?
Criterion met

Strictly below -10%: is that where activity of CC12CCC3C1C(c1c(cc(O)c(C(=O)c4ccccc4)c1O)O2)C3(C)C (stereo not given) sits?
Criterion met

Strictly below -10%: is that where activity of C=C1C(=O)OC[C@@H]1C/C=C(\C)CC1CC(C)C(=O)O1 (stereo not given in full) sits?
Criterion not met

Strictly below -10%: is that where activity of CCn1c2ccccc2c2cc(Nc3ccnc(NCCCN4CCOCC4)n3)ccc21 sits?
Criterion met

Strictly below -10%: is that where activity of CC(C)(O)C(=O)N1CCN(c2ccc(C(F)(F)F)c(C3=C(c4c[nH]c5ccccc45)C(=O)NC3=O)c2)CC1 sits?
Criterion met

Strictly below -10%: is that where activity of C=C1C(=O)OC2CC(C)C(CCC(C)O)=CCC12 (stereo not given) sits?
Criterion not met

Strictly below -10%: is that where activity of CCn1c(-c2nonc2N)nc2c(C#CC(C)(C)O)ncc(OCC3CCCNC3)c21 (stereo not given) sits?
Criterion not met

Strictly below -10%: is that where activity of Fc1ccc2c(CCNCc3cccc(OCC(F)(F)C(F)F)c3)c[nH]c2c1 sits?
Criterion met

Strictly below -10%: is that where activity of Cc1cc(NC(=O)c2cccc(NC(=O)/C=C/CN(C)C)c2)ccc1Nc1nccc(-c2cccnc2)n1 sits?
Criterion not met

Strictly below -10%: is that where activity of CCC(=C(c1ccc(OCCN2CCCC2)cc1)c1ccc(OCCN2CCCC2)cc1)c1ccccc1 sits?
Criterion not met

###

Tested on: Hek293T
Assay: Primary qHTS to identify gynecologic anti-cancer compounds using libraries of approved drugs and bioactive compounds (AID 1345084); further: nearly all actives have a fitted effect of over 55% in size
Details: Gynecologic cancer cell panel viability, ATPlite luminescence, 48 h, control line for the selectivity index; series mostly up to 57.5 µM
Inconclusive results are not listed. Active and inactive are the calls of the source. Calls follow the shape of the dose curve; as a rule, active = well fitted cell-killing curve with a large enough effect; inconclusive = small, poorly fitted or top-dose-only effect, or effect the other way; inactive = flat fitted curve, though single readings scatter.
# valid calls are active, inactive; nothing else

Would you mind telling me which call this test gave CC(F)(F)CN1CCOc2c(nn(-c3ccccc3Cl)c2-c2ccc(Cl)cc2)C1=O ?
inactive

Would you mind telling me which call this test gave C=C1C(=O)O[C@@H]2/C=C(\CO)CC/C=C(/C=O)C[C@@H](O)[C@@H]12 ?
active

Would you mind telling me which call this test gave Cc1cc(F)ccc1-c1nc(NCCN=C(N)NC#N)nc2c1ccc(=O)n2-c1c(F)cccc1F ?
inactive

Would you mind telling me which call this test gave CN(C)c1ccc(NC(=O)NS(=O)(=O)c2ccc(Cl)cc2)cc1 ?
inactive

Would you mind telling me which call this test gave Cc1cc2c(c(=O)o1)C=C1CC[C@H]([C@H](C)Cn3cnc(=N)c4[nH]cnc43)C[C@@H]1O2 ?
inactive

###

Test system: NIH3T3
Assay: Cytotoxic Profiling of Annotated Libraries Using Quantitative High-Throughput Screening (AID 1296008); further: on the % scale 0 is the no-effect control and ±100 the full control effect; nearly all actives have a fitted effect of over 60% in size
Settings: Five cell lines viability, CellTiter-Glo ATP luminescence, 48-72 h; stronger effect = lower value
Inconclusive results are not listed.
measured quantity: max response (%)
Write it as a number; the unit % goes unstated.

Measured max response, COc1cc2c(cc1NS(=O)(=O)c1ccc(Br)cc1C)n(C)c(=O)n2C : 1.72

Measured max response, CC[C@H]1CN(c2nc(N)c(C(N)=O)nc2Cl)CCN1C1CCN(Cc2ccc(Cl)cc2)CC1 : 0.303

Measured max response, CN(C)N(C)C(=O)[C@@]1(Cc2ccccc2)CCCN(C(=O)[C@@H](Cc2c[nH]c3ccccc23)NC(=O)C(C)(C)N)C1 : -7.17

Measured max response, C=C1CC[C@@H](O)[C@]2(C)CC[C@H]3C(=C)C(=O)O[C@@H]3[C@@H]12 : -16.6

Measured max response, CC(C)(Cc1ccccc1)NCC(O)c1ccc(O)c(NS(C)(=O)=O)c1 (centres undefined) : 0.817

Measured max response, COC(=O)C1=COC(O[C@@H]2O[C@H](CO[C@@H]3O[C@H](COC(=O)/C=C\c4ccc(O)cc4)[C@@H](O)[C@H](O)[C@H]3O)[C@@H](O)[C@H](O)[C@H]2O)C2C(CO)=CCC12 (some centres undefined) : -28.7

Measured max response, CCC/C=C/C(=O)O[C@H]1CC(C)(C)CC2[C@@]13[C@H](O)C[C@]1(C)[C@@]2(CCC2[C@@]4(C)CC[C@H](O[C@@H]5O[C@H](C(=O)O)[C@@H](O)[C@H](O[C@@H]6O[C@H](CO)[C@H](O)[C@H](O)[C@H]6O[C@@H]6O[C@@H](C)[C@H](O)[C@@H](O)[C@H]6O[C@@H]6OC[C@](O)(CO)[C@H]6O)[C@H]5O[C@@H]5O[C@H](CO)[C@H](O)[C@H](O)[C@H]5O)C(C)(C)C4CC[C@]21C)O[C@H]3O (some centres undefined) : 3.59

Measured max response, CC(C)(Cc1nc(-c2ccc(O)cn2)no1)C(=O)NC1=C(C(=O)O)CCCC1 : -20.8

Measured max response, CC[C@H](C(=O)Nc1ccccc1N1CCCC1)c1ccccc1 : -0.387

Measured max response, CCC(C)CNCC(=O)N1CCc2sccc2C1COc1cccc(C)c1 (centres undefined) : -25.4

Measured max response, C/C=C/C=C/C=C/C(=O)O[C@@H]1C=C2COC(=O)[C@]2(O)[C@@]2(C)CCCC(C)(C)[C@H]12 : -4.92

Measured max response, OC1CCC(Nc2nc(-c3ccccc3)nc3[nH]ccc23)CC1 (centres undefined) : -18.3

Measured max response, C[C@@H]1CC[C@@]23CC[C@]4(C)[C@@](C=CC5[C@@]6(C)CC[C@H](O)C(C)(C)C6CC[C@]54C)(OC2=O)C3[C@H]1C (some centres undefined) : 0.572

Measured max response, CC(=O)O[C@@H]1CC[C@@]2(C)[C@H](CC[C@@H]3[C@@H]2C[C@H](OC(C)=O)[C@]2(C)[C@@H](C(C)=O)CC[C@@H]32)C1 : -22.7
